This collection of values is drawn from PubChem BioAssay AID2060901.

Quick list: viability, T/C per entry.
test system: 422866-222-R5-J1-PDC complex spheroids viability; test: Anticancer human tumor 422866-222-R5-J1-PDC patient-derived pancreatic adenocarcinoma cell line growth inhibition [RAS]; conditions: second compound 0.01 µM; first compound 0.01 µM; stronger effect = lower value

# Compound, viability, T/C (%)
records = [
    ("C=CC(=O)Nc1cc(Nc2nccc(-c3cn(C)c4ccccc34)n2)c(OC)cc1N(C)CCN(C)C + C=CC(=O)N1CCN(c2nc(OCC3CCCN3C)nc3c(F)c(-c4nc(N)cc(C)c4C(F)(F)F)c(Cl)cc23)C(C)C1", 21.1),
    ("CC(C)n1nc(-c2ccc3oc(N)nc3c2)c2c(N)ncnc21 + C=CC(=O)N1CCN(c2nc(OCC3CCCN3C)nc3c(F)c(-c4nc(N)cc(C)c4C(F)(F)F)c(Cl)cc23)C(C)C1", 19.9),
    ("CCN1CCN(Cc2ccc(Nc3ncc(F)c(-c4cc(F)c5nc(C)n(C(C)C)c5c4)n3)nc2)CC1 + C=CC(=O)N1CCN(c2nc(OCC3CCCN3C)nc3c(F)c(-c4nc(N)cc(C)c4C(F)(F)F)c(Cl)cc23)C(C)C1", 24.6),
    ("O=C(c1ccc(F)c(F)c1Nc1ccc(I)cc1F)N1CC(O)([C@@H]2CCCCN2)C1 + C=CC(=O)N1CCN(c2nc(OCC3CCCN3C)nc3c(F)c(-c4nc(N)cc(C)c4C(F)(F)F)c(Cl)cc23)C(C)C1", 22.1),
    ("Nc1ccn(C2OC(CO)C(O)C2(F)F)c(=O)n1 (stereo not given) + C=CC(=O)N1CCN(c2nc(OCC3CCCN3C)nc3c(F)c(-c4nc(N)cc(C)c4C(F)(F)F)c(Cl)cc23)C(C)C1", 22.7),
]

* * *

tested on: 422866-222-R5-J1-PDC complex spheroids viability; test: Anticancer human tumor 422866-222-R5-J1-PDC cell line growth inhibition [RAS]; details: compound 0.00949 µM; stronger effect = lower value;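 also: spheroids exposed to compounds for 7 days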;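 as to viability, T/C: 100% = DMSO vehicle control viability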
viability, T/C for assorted compounds
Recorded endpoint: viability, T/C

# Compound, Result
rows = [
    ("CCc1c2c(nc3ccc(O)cc13)-c1cc3c(c(=O)n1C2)COC(=O)[C@]3(O)CC", "51.5% [middle of 4 runs]"),
    ("CCn1c(-c2cc(N3CCN(C)CC3)cnc2C(C)OC)c2c3cc(ccc31)-c1csc(n1)CC(NC(=O)C1CC1C)C(=O)N1CCCC(N1)C(=O)OCC(C)(C)C2 (centres undefined)", "19.6% [middle of 8 runs]"),
    ("CCn1c(-c2cccnc2C(C)OC)c2c3cc(ccc31)N1CCOC(CC(NC(=O)C(C(C)C)N(C)C(=O)C3(F)CCN(C(=O)C#CC(C)(C)N(C)C)CC3)C(=O)N3CCCC(N3)C(=O)OCC(C)(C)C2)C1 (centres undefined)", "21.9% [middle of 8 runs]"),
    ("CC1(C)CCC(Nc2ncc(C(F)(F)F)c(-c3c[nH]c4c(P(C)(C)=O)c(C#N)ccc34)n2)CN1 (centres undefined)", "78.1% [middle of 4 runs]"),
]

* * *

system: 422866-222-R5-J1-PDC complex spheroids viability; assay: Anticancer human tumor 422866-222-R5-J1-PDC cell line growth inhibition [RAS]; conditions: curve of compound;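 also: spheroids exposed to compounds for 7 days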

# Compound, Study system, IC50
data = [
    ("CC(C)NCC(C(=O)N1CCN(c2ncnc3c2C(C)CC3O)CC1)c1ccc(Cl)cc1 (centres undefined)", "422866-222-R5-J1-PDC complex spheroids viability", "> 10000 nM"),
    ("CC(=O)OC12COC1CC(O)C1(C)C(=O)C(O)C3=C(C)C(OC(=O)C(O)C(NC(=O)OC(C)(C)C)c4ccccc4)CC(O)(C(OC(=O)c4ccccc4)C21)C3(C)C (centres undefined)", "422866-222-R5-J1-PDC complex spheroids viability", "> 10000 nM"),
    ("CCC(CC)c1cc(NC2CCC(N)C2)n2nccc2n1 (centres undefined)", "422866-222-R5-J1-PDC complex spheroids viability", "2.36 µM [middle of 4 runs]"),
    ("C=CC(=O)N1CCN(c2nc(OCC3CCCN3C)nc3c(F)c(-c4nc(N)cc(C)c4C(F)(F)F)c(Cl)cc23)C(C)C1 (centres undefined)", "422866-222-R5-J1-PDC complex spheroids viability", "< 3.16 nM"),
    ("C[C@@H](NC(=O)c1ncnc(N)c1Cl)c1ncc(C(=O)Nc2cc(C(F)(F)F)c(Cl)cn2)s1", "422866-222-R5-J1-PDC complex spheroids viability", "> 10000 nM"),
    ("C=CC(=O)Nc1cc(Nc2nccc(-c3cn(C)c4ccccc34)n2)c(OC)cc1N(C)CCN(C)C", "422866-222-R5-J1-PDC complex spheroids viability", "> 1000 nM"),
    ("CC1(C)CCC(Nc2ncc(C(F)(F)F)c(-c3c[nH]c4c(P(C)(C)=O)c(C#N)ccc34)n2)CN1 (centres undefined)", "422866-222-R5-J1-PDC complex spheroids viability", "> 300 nM"),
    ("CCN1CCN(Cc2ccc(Nc3ncc(F)c(-c4cc(F)c5nc(C)n(C(C)C)c5c4)n3)nc2)CC1", "422866-222-R5-J1-PDC complex spheroids viability", "> 1000 nM"),
    ("CC(C)n1nc(-c2ccc3oc(N)nc3c2)c2c(N)ncnc21", "422866-222-R5-J1-PDC complex spheroids viability", "> 100 nM"),
]

* * *

system: 422866-222-R5-J1-PDC complex spheroids viability; test: Anticancer human tumor 422866-222-R5-J1-PDC cell line growth inhibition [RAS]; settings: second compound 0.003 µM; first compound 0.01 µM; stronger effect = lower value;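 also: spheroids exposed to compounds for 7 days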;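 as to viability, T/C: 100% = DMSO vehicle control viability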
Recorded viability, T/C, one value per entry.

# Molecule, Reading unit, viability, T/C
data = [
    ("CCN1CCN(Cc2ccc(Nc3ncc(F)c(-c4cc(F)c5nc(C)n(C(C)C)c5c4)n3)nc2)CC1 + CCn1c(-c2cc(N3CCN(C)CC3)cnc2C(C)OC)c2c3cc(ccc31)-c1csc(n1)CC(NC(=O)C1CC1C)C(=O)N1CCCC(N1)C(=O)OCC(C)(C)C2", "%", 21.5),
    ("C=CC(=O)N1CCN(c2nc(OCC3CCCN3C)nc3c(F)c(-c4nc(N)cc(C)c4C(F)(F)F)c(Cl)cc23)C(C)C1 (centres undefined) + CCn1c(-c2cccnc2C(C)OC)c2c3cc(ccc31)N1CCOC(CC(NC(=O)C(C(C)C)N(C)C(=O)C3(F)CCN(C(=O)C#CC(C)(C)N(C)C)CC3)C(=O)N3CCCC(N3)C(=O)OCC(C)(C)C2)C1", "%", 25.6),
    ("O=C(c1ccc(F)c(F)c1Nc1ccc(I)cc1F)N1CC(O)([C@@H]2CCCCN2)C1 + CCn1c(-c2cccnc2C(C)OC)c2c3cc(ccc31)N1CCOC(CC(NC(=O)C(C(C)C)N(C)C(=O)C3(F)CCN(C(=O)C#CC(C)(C)N(C)C)CC3)C(=O)N3CCCC(N3)C(=O)OCC(C)(C)C2)C1", "%", 17.8),
    ("CC(C)n1nc(-c2ccc3oc(N)nc3c2)c2c(N)ncnc21 + CCn1c(-c2cccnc2C(C)OC)c2c3cc(ccc31)N1CCOC(CC(NC(=O)C(C(C)C)N(C)C(=O)C3(F)CCN(C(=O)C#CC(C)(C)N(C)C)CC3)C(=O)N3CCCC(N3)C(=O)OCC(C)(C)C2)C1", "%", 17.6),
]

* * *

viability, T/C for assorted compounds
test system: 422866-222-R5-J1-PDC complex spheroids viability; test: Anticancer human tumor 422866-222-R5-J1-PDC cell line growth inhibition [RAS]; conditions: second compound 0.0949 µM; first compound 0.316 µM; stronger effect = lower value;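 also: spheroids exposed to compounds for 7 days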;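 as to viability, T/C: 100% = DMSO vehicle control viability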

# Compound, viability, T/C
measured = [
    ("CC(Nc1ccc2c(c1)OCCn1cc(N3C(=O)OCC3C(F)F)nc1-2)C(N)=O (stereo not drawn) + CCn1c(-c2cc(N3CCN(C)CC3)cnc2C(C)OC)c2c3cc(ccc31)-c1csc(n1)CC(NC(=O)C1CC1C)C(=O)N1CCCC(N1)C(=O)OCC(C)(C)C2", "8.62%"),
    ("C=CC(=O)Nc1cc(Nc2nccc(-c3cn(C)c4ccccc34)n2)c(OC)cc1N(C)CCN(C)C + CCn1c(-c2cccnc2C(C)OC)c2c3cc(ccc31)N1CCOC(CC(NC(=O)C(C(C)C)N(C)C(=O)C3(F)CCN(C(=O)C#CC(C)(C)N(C)C)CC3)C(=O)N3CCCC(N3)C(=O)OCC(C)(C)C2)C1", "13.5%"),
    ("CC1(O)CCCC1n1c(=O)c(C(F)F)cc2cnc(NC3CCN(S(C)(=O)=O)CC3)nc21 (stereo not drawn) + CCn1c(-c2cc(N3CCN(C)CC3)cnc2C(C)OC)c2c3cc(ccc31)-c1csc(n1)CC(NC(=O)C1CC1C)C(=O)N1CCCC(N1)C(=O)OCC(C)(C)C2", "21.2%"),
]
